Value source: ChEMBL document CHEMBL1141440

# Tested on: COLO 205
# procedure_text: Cytotoxicity against human COLO205 cells
# Type: functional, cell-based
attribute_measured: IC50

Consider the following illustrative entries.
C=C1C=C[C@@H](OC(=O)/C(C)=C/C)[C@@]2(C)CC[C@@H]3[C@@H](OC(=O)[C@]3(C)O)[C@H]12 : > 100 µg/mL
C/C=C(\C)C(=O)O[C@H]1C[C@](C)(O)C2CC=C(C)[C@H]2[C@@H]2OC(=O)[C@H](C)[C@@H]21 (some centres undefined) : > 100 µg/mL
C=C1[C@H]2O[C@H]2[C@@H](OC(=O)/C(C)=C/C)[C@@]2(C)CC[C@@H]3[C@@H](OC(=O)[C@@]3(O)COC(=O)/C(C)=C\C)[C@H]12 : > 100 µg/mL

The recorded IC50 for entry C=C1[C@@H](OC(=O)C(C)CC)C=C[C@@]2(C)CC[C@@H]3[C@@H](OC(=O)[C@@H]3C)[C@H]12 (some centres undefined) equals > 100 µg/mL

----------
# System: K562
# procedure_text: Cytotoxicity against multidrug-resistant human K562 cells
# Type: functional, cell-based
# measurement_parameters: in the assay text read “human K562 cells” for “multidrug-resistant human K562 cells”
attribute_measured: IC50 (mg/L)
One number for each entry, in mg/L.

C=C1C(=O)O[C@@H]2[C@H]1CC[C@]1(C)[C@H](OC(=O)/C(C)=C/C)C=CC(=C)[C@@H]21 [DEHYDROOOPODIN] : 36.8
C=C1C=C[C@@H](OC(=O)/C(C)=C/C)[C@@]2(C)CC[C@@H]3[C@@H](OC(=O)[C@@H]3C)[C@H]12 [OOPODIN] : 35.1

The reported IC50 of the compound COc1cccc2c1C(=O)c1c(O)c3c(c(O)c1C2=O)C[C@@](O)(C(=O)CO)C[C@@H]3O[C@H]1C[C@H](N)[C@H](O)[C@H](C)O1 [DOXORUBICIN] was 0.45

----------
So I've got a bunch of compounds here, and I need their IC50 values.
# procedure_text: Cytotoxicity against doxorubicin-resistant human K562/Adr cells
# Type: functional, cell-based

C=C1C=C[C@@H](OC(=O)/C(C)=C/C)[C@@]2(C)CC[C@@H]3[C@@H](OC(=O)[C@]3(C)O)[C@H]12 : > 100 µg/mL
C=C1[C@H]2O[C@H]2[C@@H](OC(=O)/C(C)=C/C)[C@@]2(C)CC[C@@H]3[C@@H](OC(=O)[C@@]3(O)COC(=O)/C(C)=C\C)[C@H]12 : > 100 µg/mL
C=C1C(=O)O[C@@H]2[C@H]1CC[C@]1(C)[C@H](OC(=O)/C(C)=C/C)C=CC(=C)[C@@H]21 [DEHYDROOOPODIN] : > 100 µg/mL
C=C1[C@@H](OC(=O)C(C)CC)C=C[C@@]2(C)CC[C@@H]3[C@@H](OC(=O)[C@@H]3C)[C@H]12 (some centres not stated) : > 100 µg/mL
COc1cccc2c1C(=O)c1c(O)c3c(c(O)c1C2=O)C[C@@](O)(C(=O)CO)C[C@@H]3O[C@H]1C[C@H](N)[C@H](O)[C@H](C)O1 [DOXORUBICIN] : 15.3 µg/mL

Each compound below has a reported value. Please supply its IC50.
1. C/C=C(\C)C(=O)O[C@H]1C[C@](C)(O)C2CC=C(C)[C@H]2[C@@H]2OC(=O)[C@H](C)[C@@H]21 (some centres not stated)
2. C=C1C=C[C@@H](OC(=O)/C(C)=C/C)[C@@]2(C)CC[C@@H]3[C@@H](OC(=O)[C@@H]3C)[C@H]12 [OOPODIN]

1: > 100 µg/mL; 2: 25.4 µg/mL
